The origin of these recorded values is patent US20250236642A1.

assayed_system: T1, HLA-A*02:01 molecule
T1 construct: MHC class I molecule on T2 cells (ATCC); also called product of an HLA-A*02:01 gene; allele A*02:01
method_summary: flow cytometry, T2 cells
measured_parameter: log Kd

- LHEEHGATL (synthetic 9-mer derived from EVC2) [peptide of SEQ ID NO: 79]: > -3
- ILSDHQQSQ (synthetic 9-mer derived from Casp-8) [peptide of SEQ ID NO: 70]: > -3
- SPDEFSNDF (synthetic 9-mer derived from Casp-8) [peptide of SEQ ID NO: 73]: > -3
- LPPARHSTI (synthetic 9-mer derived from c-Myb) [peptide of SEQ ID NO: 76]: > -3
- STGESAQTS (synthetic 9-mer derived from Casp-8) [peptide of SEQ ID NO: 71]: > -3
- GSPDEFSND (synthetic 9-mer derived from Casp-8) [peptide of SEQ ID NO: 72]: > -3

Input: Which log Kd value is on record for ASPSHMTSM (synthetic 9-mer derived from Helios) [peptide of SEQ ID NO: 81] ?
Output: > -3
